- Tested on: KM12 colon
- test-name: NCI-60 one-dose screen, 48 h (100 = growth as untreated, 0 = no growth, -100 = all killed)
- condition-info: 10 µM unless noted
Compounds without any hit were thinned out: in the full panel of roughly 83,000, 20% have a hit.
Tag: Y if measured growth is not below 60%, N if it is.

Check out these entries, answers already filled in.
- compound: "COc1cc(-c2cc(/C=C3\\CCCCC3=O)[nH]n2)cc(OC)c1OC"
  system: "KM12 colon"
  qualitative-label: "Y"
- compound: "O=S(=O)(NCCCNc1nccc(-c2c(-c3ccc(O)cc3)nc3sccn23)n1)c1ccc(F)cc1"
  system: "KM12 colon"
  qualitative-label: "N"
- compound: "COc1cc(-n2nc(C(=O)Nc3ccc(C(=O)O)cc3)nc2-c2ccccc2)cc(OC)c1OC"
  system: "KM12 colon"
  qualitative-label: "Y"

query: Please indicate if the recorded growth for CCNC(=O)C1CCCN1C(=O)C(CCCN=C(N)N)NC(=O)C(CC(C)C)NC(=O)C(CC(C)C)NC(=O)C(Cc1ccc(O)cc1)NC(=O)C(CO)NC(=O)C(Cc1c[nH]c2ccccc12)NC(=O)C(Cc1cnc[nH]1)NC(=O)C1CCC(=O)N1 (stereo not given) meets or exceeds 60%.
result: Y

query: Please indicate if the recorded growth for "CC/C(=C(\c1ccc(O)cc1)c1ccc(OCCN(C)CCN(C)C(=O)CCC(=O)c2c(C)[nH]c(/C=C3\N=C(c4ccc[nH]4)C=C3OC)c2C)cc1)c1ccccc1" meets or exceeds 60%.
result: N

This collection of values is drawn from PubChem BioAssay (NCI).
